target-or-test-system: human Tissue Factor on MDA-MB-231 cells (human, UniProt P13726 33-295)
measurement-protocol: cell-based or functional assay
Exercise: state measured % IL8, 100 nM Ab for each of the binders provided.
Numbers only, in %.

See these solved cases before continuing.
Query block: For the binder 43B7 (antibody, V domains shown) VH: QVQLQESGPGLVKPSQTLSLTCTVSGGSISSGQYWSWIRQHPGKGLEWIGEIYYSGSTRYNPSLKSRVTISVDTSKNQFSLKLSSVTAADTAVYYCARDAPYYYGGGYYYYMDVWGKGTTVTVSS VL: EIVLTQSPGTLSLSPGERATLSCRASESVDSSYLAWYQQKPGQAPRLLIYGADSRATGIPDRFSGSGSGTDFTLTISRLEPEDFAVYYCQQDGVVPYTFGGGTKVEIK , give its measured % IL8, 100 nM Ab value.
Result block: 4

Query block: For the binder 25G (antibody, human IgG1, kappa, V domains shown, Human anti-TF IgG1) VH: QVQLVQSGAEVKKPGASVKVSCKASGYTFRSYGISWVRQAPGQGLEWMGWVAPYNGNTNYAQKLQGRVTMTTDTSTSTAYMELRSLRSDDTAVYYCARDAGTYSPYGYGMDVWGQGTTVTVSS VL: DIQMTQSPSTLSASVGDRVTITCRASQSISSWLAWYQQKPGKAPKLLIYKASSLESGVPSRFSGSGSGTEFTLTISSLQPDDFATYYCQQFQSLPPFTFGGGTKVEIKR , give its measured % IL8, 100 nM Ab value.
Result block: 9

# next binder below
Query block: For the binder 43B (antibody, V domains shown) VH: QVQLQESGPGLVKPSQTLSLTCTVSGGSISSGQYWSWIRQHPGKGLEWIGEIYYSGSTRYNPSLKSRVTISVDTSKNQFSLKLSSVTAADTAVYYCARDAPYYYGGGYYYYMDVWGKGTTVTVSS VL: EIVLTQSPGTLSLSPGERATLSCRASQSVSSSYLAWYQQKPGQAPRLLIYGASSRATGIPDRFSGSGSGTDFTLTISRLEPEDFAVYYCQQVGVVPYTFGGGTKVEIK , give its measured % IL8, 100 nM Ab value.
Result block: 4
